- MEASURED_TARGET: human GIP receptor (bioGIPR) (Homo sapiens)
- Construct: Biotinylate extracellular of the human GIP receptor (bioGIPR, Proteros biostructures GmbH, lot #02/2b); purchased Proteros biostructures GmbH lot #02/2b
- Sequence (P48546 22-138 limits assumed): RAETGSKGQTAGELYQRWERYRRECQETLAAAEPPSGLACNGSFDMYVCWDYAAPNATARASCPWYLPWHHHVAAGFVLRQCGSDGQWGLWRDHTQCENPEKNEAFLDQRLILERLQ
- EXPERIMENT_SUMMARY: Surface plasmon resonance (SPR) based binding assay
- CONDITION_PARAMETERS: SPR dissociation half-life, Single Cycle Kinetic mode, 25° C.
*1 amine or outer side, *2 acyl side, *3 side chain or, on linkers, in order; H or OH if unused. Where a SMILES comes first, the peptide text is derived from it. Bridges are numbered along the chain shown (N, C = ends). [ ]: non-standard residue; d: D form. The star is where a group is joined. X3 = O=C(O)CN1CCN(CC(=O)O)CCN(CC(=O)NCCCOCCOCCOCCCN*)CCN(CC(=O)O)CC1; X8 = O=C(O)CN1CCN(CC(=O)O)CCN(CC(=O)N2CCN(*)CC2)CCN(CC(=O)O)CC1; DOTA = O=C(O)CN1CCN(CC(=O)O)CCN(CC(=O)*)CCN(CC(=O)O)CC1; Trp(5-Br) = N[C@@H](Cc1c[nH]c2ccc(Br)cc12)C(=O)O; Trp(5-Cl) = N[C@@H](Cc1c[nH]c2ccc(Cl)cc12)C(=O)O; Pyridine(2,6-diCH2) = c1cc(C[*:1])nc(C[*:2])c1; Pro(4R-NH2) = N[C@H]1CN[C@H](C(=O)O)C1; X6 = c1cc(CSCCN[*:2])nc(C[*:1])c1; X7 = c1cc(CSCCN[*:2])cc(C[*:1])c1; Hyp = O=C(O)[C@@H]1C[C@@H](O)CN1; X1 = O=C(CN1CCC(N[*:1])CC1)[*:2]; Suc = O=C(CCC(=O)[*:2])[*:1]; hSer = N[C@@H](CCO)C(=O)O; Thp = NC1(C(=O)O)CCOCC1; Aib = CC(C)(N)C(=O)O
ENDPOINT_LABEL: t1/2 Category

COMPOUND	MEASURED_TARGET	ENDPOINT_RESULT
CC[C@H](C)[C@@H]1NC(=O)[C@H](CC(C)C)NC(=O)C(C)(C)NC(=O)[C@@H](NC(=O)[C@@H](CC(C)C)NC(=O)[C@H](CCC(=O)O)NC(=O)[C@@H]2C[C@@H](N)CN2C(=O)[C@H](Cc2c[nH]c3ccc(Cl)cc23)NC(=O)[C@H](Cc2c[nH]c3ccccc23)NC(=O)[C@H](CC(=O)O)NC(=O)CCC(=O)NCCCOCCOCCOCCCNC(=O)CN2CCN(CC(=O)O)CCN(CC(=O)O)CCN(CC(=O)O)CC2)CSCc2cccc(c2)CSCCNC1=O [GIP-095] ({X3-Suc}-DW[Trp(5-Cl)][Pro(4R-NH2)]E[dL]C[Aib]LI; linker 7-C via X7)	human GIP receptor (bioGIPR) (Homo sapiens)	A (t1/2 values>15 min)
CC[C@H](C)[C@@H]1NC(=O)[C@H](CC(C)C)NC(=O)C2(CCOCC2)NC(=O)[C@@H](NC(=O)[C@@H](CC(C)C)NC(=O)[C@H](CCC(=O)O)NC(=O)[C@@H]2C[C@@H](O)CN2C(=O)[C@H](Cc2c[nH]c3ccc(Br)cc23)NC(=O)[C@H](Cc2c[nH]c3ccccc23)NC(=O)[C@H](CCO)NC(C)=O)CSCc2cccc(n2)CSC[C@@H](C(N)=O)NC1=O [GIP-197] (Ac-[hSer]W[Trp(5-Br)][Hyp]E[dL]C[Thp]LIC-NH2; linker 7-11 via Pyridine(2,6-diCH2))	human GIP receptor (bioGIPR) (Homo sapiens)	A (t1/2 values>15 min)
CC[C@H](C)[C@@H]1NC(=O)[C@H](CC(C)C)NC(=O)C2(CCOCC2)NC(=O)[C@@H](NC(=O)[C@@H](CC(C)C)NC(=O)[C@H](CCC(=O)O)NC(=O)[C@@H]2C[C@@H](O)CN2C(=O)[C@H](Cc2c[nH]c3ccc(Cl)cc23)NC(=O)[C@H](Cc2c[nH]c3ccccc23)NC(=O)[C@H](CC(=O)O)NC(=O)CN2CCC(NC(=O)CN3CCN(CC(=O)O)CCN(CC(=O)O)CCN(CC(=O)O)CC3)CC2)CNCc2cccc(n2)CSCCNC1=O [GIP-106]	human GIP receptor (bioGIPR) (Homo sapiens)	A (t1/2 values>15 min)
CC[C@H](C)[C@@H]1NC(=O)[C@H](CC(C)C)NC(=O)C2(CCNCC2)NC(=O)[C@@H](NC(=O)[C@@H](CC(C)C)NC(=O)[C@H](CCC(=O)O)NC(=O)[C@@H]2C[C@@H](N)CN2C(=O)[C@H](Cc2c[nH]c3ccc(Cl)cc23)NC(=O)[C@H](Cc2c[nH]c3ccccc23)NC(=O)[C@H](CC(=O)O)NC(=O)CCC(=O)NCCCOCCOCCOCCCNC(=O)CN2CCN(CC(=O)O)CCN(CC(=O)O)CCN(CC(=O)O)CC2)CNCc2cccc(n2)CSCCNC1=O [GIP-113]	human GIP receptor (bioGIPR) (Homo sapiens)	A (t1/2 values>15 min)
CC[C@H](C)[C@@H]1NC(=O)[C@H](CC(C)C)NC(=O)C2(CCOCC2)NC(=O)[C@@H](NC(=O)[C@@H](CC(C)C)NC(=O)[C@H](Cc2c[nH]cn2)NC(=O)[C@@H]2C[C@@H](O)CN2C(=O)[C@H](Cc2c[nH]c3ccc(Cl)cc23)NC(=O)[C@H](Cc2c[nH]c3ccccc23)NC(=O)[C@H](CC(=O)O)NC(C)=O)CSCc2cccc(n2)CSC[C@@H](C(N)=O)NC1=O [GIP-377] (Ac-DW[Trp(5-Cl)][Hyp]H[dL]C[Thp]LIC-NH2; linker 7-11 via Pyridine(2,6-diCH2))	human GIP receptor (bioGIPR) (Homo sapiens)	A (t1/2 values>15 min)
CC[C@H](C)[C@@H]1NC(=O)[C@H](CC(C)C)NC(=O)C2(CCOCC2)NC(=O)[C@@H](NC(=O)[C@@H](CC(C)C)NC(=O)[C@H](CCC(=O)O)NC(=O)[C@@H]2C[C@@H](O)CN2C(=O)[C@H](Cc2c[nH]c3ccc(Cl)cc23)NC(=O)[C@H](Cc2c[nH]c3ccccc23)NC(=O)[C@H](CC(=O)O)NC(=O)CN2CCC(NC(=O)CN3CCN(CC(=O)O)CCN(CC(=O)O)CCN(CC(=O)O)CC3)CC2)CSCc2cccc(n2)CSCCNC1=O [GIP-103] ({DOTA}-[X1]DW[Trp(5-Cl)][Hyp]E[dL]C[Thp]LI; linker 8-C via X6)	human GIP receptor (bioGIPR) (Homo sapiens)	A (t1/2 values>15 min)
CC[C@H](C)[C@@H]1NC(=O)[C@H](CC(C)C)NC(=O)C2(CCOCC2)NC(=O)[C@@H](NC(=O)[C@@H](CC(C)C)NC(=O)[C@H](CCC(=O)O)NC(=O)[C@@H]2C[C@@H](O)CN2C(=O)[C@H](Cc2c[nH]c3ccc(Cl)cc23)NC(=O)[C@H](Cc2c[nH]c3ccccc23)NC(=O)CCC(=O)O)CSCc2cccc(n2)CSC[C@@H](C(=O)N2CCN(C(=O)CN3CCN(CC(=O)O)CCN(CC(=O)O)CCN(CC(=O)O)CC3)CC2)NC1=O [GIP-118] (Suc-W[Trp(5-Cl)][Hyp]E[dL]C[Thp]LIC-X8; linker 6-10 via Pyridine(2,6-diCH2))	human GIP receptor (bioGIPR) (Homo sapiens)	A (t1/2 values>15 min)
